Assign labels as follows, please: y for glass transition temperature below 100 °C; n for glass transition temperature equal to or exceeding 100 °C.

Answered cases to consult:
*c1ccc2c(c1)C(=O)N(c1ccc(Sc3ccc(Sc4ccc(Sc5ccc(N6C(=O)c7ccc(C(*)(C(F)(F)F)C(F)(F)F)cc7C6=O)cc5)cc4)cc3)cc1)C2=O (repeat unit) = n
*CC(*)(C)C(=O)OCCC[Si](O[Si](C)(C)C)(O[Si](C)(C)C)O[Si](C)(C)C (repeat unit) = y
*c1ccc(C(=O)Nc2ccc(Oc3ccc(Oc4ccc(NC(=O)c5ccc(Oc6ccc(-c7nn(*)c(=O)c8ccccc78)c7ccccc67)cc5)cc4)cc3)cc2)cc1 (repeat unit) = n

In plain terms, does *Oc1ccc(Oc2ccc(P(C)(=O)c3ccc(*)cc3)cc2)cc1 (repeat unit) come in under 100 °C for glass transition temperature?
n

In plain terms, does *CCCCCOC(=O)OCCCCCN1C(=O)c2ccc(-c3ccc4c(c3)C(=O)N(*)C4=O)cc2C1=O (repeat unit) come in under 100 °C for glass transition temperature?
y

In plain terms, does *Oc1ccc(C(CCC)c2ccc(OC(*)=O)cc2)cc1 (repeat unit) [Poly[1,1-butane bis(4-phenyl)carbonate] ] come in under 100 °C for glass transition temperature?
n

In plain terms, does *Oc1ccc(CC(NC(=O)CCc2ccc(OC(=O)CCCCC(*)=O)cc2)C(=O)OCCCC)cc1 (repeat unit) come in under 100 °C for glass transition temperature?
y

###

Listed here: items and their measured glass transition temperature.
Express it in °C; write the number only.

The following compounds have reported results that may help.
*c1ccc(C(=O)OCCCCCCCCOC(=O)c2ccc(-c3nnc(*)s3)cc2)cc1 (repeat unit) = 86.00
*O[Si](C)(C)O[Si](C)(C)O[Si](*)(C)c1c(F)c(F)c(F)c(F)c1F (repeat unit) = -83.00
*/C(C#N)=C/c1cc(OCCCCCCCCCC)c(/C=C(\C#N)c2cc(OCCCCCCCCCC)c(*)cc2OC)cc1OC (repeat unit) = 198.00

Now look at this entry.
Provide measured glass transition temperature value, entry: *Nc1cc(NC(=O)c2ccc(C(*)=O)cc2)cc(C(=O)Oc2ccccc2)c1 (repeat unit)
200.00

###

± gives the standard deviation of the reports.
Readout Kind: glass transition temperature
Please report the result as a number followed by the unit.

The following compounds have reported results that may help.
*CC#CCOC(=O)CCCCCCCCC(=O)O* (repeat unit) = -26.50 °C
*Oc1cccc(*)c1 (repeat unit) = 53.00 °C
*Oc1ccc(S(=O)(=O)c2ccc(Oc3c(C)cc(C(c4cc(C)c(*)c(C)c4)(C(F)(F)F)C(F)(F)F)cc3C)cc2C(O)(C(F)(F)F)C(F)(F)F)c(C(O)(C(F)(F)F)C(F)(F)F)c1 (repeat unit) = 196.00 °C
*c1ccc(-c2ccc3nc(*)cc(-c4ccccc4)c3c2)cc1 (repeat unit) = 383.00 °C
*C(=O)c1ccc(Oc2ccc(S(=O)(=O)c3ccc(Oc4ccc(C(=O)c5ccc6c(c5)C(=O)N(c5ccc(Cc7ccc(N8C(=O)c9ccc(*)cc9C8=O)cc7)cc5)C6=O)cc4)cc3)cc2)cc1 (repeat unit) = 245.00 °C

Provide measured glass transition temperature value, entry: *Oc1ccc(CC(NC(=O)CCc2ccc(OC(=O)COCC(*)=O)cc2)C(=O)OCCOCCOCC)cc1 (repeat unit)
27.00 °C

Provide measured glass transition temperature value, entry: *CC(*)c1ccc(COCCC)cc1 (repeat unit)
22 ± 1.2 °C

Provide measured glass transition temperature value, entry: *CCNC(=O)c1ccccc1O* (repeat unit)
84.00 °C

Provide measured glass transition temperature value, entry: *O[Si](*)(C)CCCCCCOc1ccc(-c2ccc(C#N)cc2)cc1 (repeat unit)
10.00 °C

Provide measured glass transition temperature value, entry: *Oc1c(-c2ccccc2)cc(Cc2cc(-c3ccccc3)c(OC(=O)CCCCCCCCC(*)=O)c(-c3ccccc3)c2)cc1-c1ccccc1 (repeat unit)
92.00 °C

Provide measured glass transition temperature value, entry: *CC(OC)C(C(=O)O)C(*)C(=O)O (repeat unit)
144.00 °C

Provide measured glass transition temperature value, entry: *CC(*)OC(=O)c1cccnc1 (repeat unit)
86.50 °C

Provide measured glass transition temperature value, entry: *OP(=O)(Oc1ccccc1)Oc1ccc(S(=O)(=O)c2ccc(*)cc2)cc1 (repeat unit)
100.50 °C

Provide measured glass transition temperature value, entry: *CC(*)C(=O)OC1CCCCCCCCCCC1 (repeat unit)
37.00 °C

Provide measured glass transition temperature value, entry: *c1ccc(OC(=O)c2ccc(C(=O)Oc3ccc(C4(*)NC(=O)c5ccccc54)cc3)cc2)cc1 (repeat unit)
327.00 °C

Provide measured glass transition temperature value, entry: *c1cc(CCCCCCO[Si](C)(C)C)c(*)s1 (repeat unit)
10.00 °C

Provide measured glass transition temperature value, entry: *CC(*)(C)C(=O)OCCn1c2ccccc2c2ccccc21 (repeat unit)
148.00 °C

Provide measured glass transition temperature value, entry: *CC(*)c1ccc(CCCC)cc1 (repeat unit)
6 ± 0.6 °C

###

Listed here: items and their measured glass transition temperature.
Express it in °C; write the number only.

The following molecules have reported results that may help.
*CC(OCC(C)C)C1C(=O)OC(=O)C1* (repeat unit) = 145.00
*C(=O)Nc1ccc(Oc2ccc(C3(c4ccc(Oc5ccc(NC(=O)c6ccc7c(c6)C(=O)N(c6ccc(N8C(=O)c9ccc(*)cc9C8=O)cc6)C7=O)cc5)cc4)NC(=O)c4ccccc43)cc2)cc1 (repeat unit) = 322.00
*c1cccc(N2C(=O)c3ccc(Oc4cc5ccccc5cc4Oc4ccc5c(c4)C(=O)N(*)C5=O)cc3C2=O)c1 (repeat unit) = 237.00
*CC(*)(CC(=O)OCCOC)C(=O)OCCOC (repeat unit) = 34.00
*OC(C)CCCC(C)C(*)=O (repeat unit) = -33.00
*CCCN(*)C(C)=O (repeat unit) = 30.00

Provide measured glass transition temperature value, entry: *Oc1ccc(S(=O)(=O)c2ccc(Oc3ccc(C4CCCC(C(C)c5ccc(*)cc5)C4)cc3)cc2)cc1 (repeat unit)
230.00

Provide measured glass transition temperature value, entry: *CC(*)C(=O)OCC(F)(F)C(F)(F)C(F)(F)C(F)(F)C(F)(F)F (repeat unit)
-39.00

Provide measured glass transition temperature value, entry: *CC(C)(CO*)COCC(F)(F)C(F)(F)C(F)(F)C(F)(F)C(F)(F)C(F)(F)C(F)(F)F (repeat unit)
-49.00

Provide measured glass transition temperature value, entry: *Oc1c(C)cc(C(C)(C)c2cc(C)c(OC(=O)c3ccc(C(*)=O)cc3)c(C)c2)cc1C (repeat unit)
239.00

Provide measured glass transition temperature value, entry: *C(=O)Nc1ccc(Sc2ccc(NC(=O)c3ccc4c(c3)C(=O)N(c3ccc(Oc5ccc(C6(c7ccc(Oc8ccc(N9C(=O)c%10ccc(*)cc%10C9=O)cc8)cc7)NC(=O)c7ccccc76)cc5)cc3)C4=O)cc2)cc1 (repeat unit)
312.00

###

Readout Kind: glass transition temperature (°C)
Express it in °C; write the number only.

The following compounds have reported results that may help.
*CC(CC)(CCl)CO* (repeat unit) = 20.00
*Oc1ccc(CC(NC(=O)CCc2ccc(OC(=O)CCCCCCC(*)=O)cc2)C(=O)OC)cc1 (repeat unit) = 55.50
*c1cc(C(=O)OCCC)cc(N2C(=O)CC(C3Cc4ccccc4C4C(=O)N(*)C(=O)C43)C2=O)c1 (repeat unit) = 249.00

Now look at this entry.
Provide measured glass transition temperature value, entry: */C=N/c1ccc(C(=O)OCCCCOCCCCOCCCCOC(=O)c2ccc(/N=C/c3ccc(*)s3)cc2)cc1 (repeat unit)
25.00

###

Listed here: items and their measured glass transition temperature.
Express it in °C; write the number only.

Provide measured glass transition temperature value, entry: *Oc1ccc(/N=C/CCC/C=N/c2ccc(OC(=O)Nc3ccc(Cc4ccc(NC(*)=O)cc4)cc3)cc2)cc1 (repeat unit)
76.00

Provide measured glass transition temperature value, entry: *C1C(*)C2CC1C(C(=O)OCCC1CC3CCC1C3)C2C(=O)OCCC1CC2CCC1C2 (repeat unit)
260.00

Provide measured glass transition temperature value, entry: *c1ccc(NC2CC(=O)N(c3ccc(-c4sc(-c5ccc(N6C(=O)CC(Nc7ccc(-c8nc(C#N)c(C#N)nc8*)cc7)C6=O)cc5)c(-c5ccccc5)c4-c4ccccc4)cc3)C2=O)cc1 (repeat unit)
231.00

###

Readout Kind: glass transition temperature (°C)
Express it in °C; write the number only.

*CCCCCCCCCCCCN1C(=O)c2ccc(C(=O)c3ccc4c(c3)C(=O)N(*)C4=O)cc2C1=O (repeat unit) = 87.50
*c1ccc2c(c1)C(=O)N(c1cccc(Oc3ccc(N4C(=O)c5ccc(C(*)(C(F)(F)F)C(F)(F)F)cc5C4=O)cc3)c1)C2=O (repeat unit) = 260.00
*OC1C(COCC)OC(*)C(OCC)C1OCC (repeat unit) = 131.2

Provide measured glass transition temperature value, entry: *C(=O)c1ccc(C(=O)N2CC(C)N(*)CC2C)cc1 (repeat unit)
350.00

Provide measured glass transition temperature value, entry: *CCCNC(=O)CCCCCCCCC(=O)NCCCOCCOCCO* (repeat unit)
40.00
